System: SCC-4 (Oral Cavity Carcinoma);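 further: after 72 h of two-drug dosing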
Assay: Bliss excess, mean over the matrix (fraction); higher = more synergy
READOUT KIND: Bliss excess
Response field accepts a number only; no unit should be typed.

Item under review: CC1(C)CCC(CN2CCN(c3ccc(C(=O)NS(=O)(=O)c4ccc(NCC5CCOCC5)c([N+](=O)[O-])c4)c(Oc4cnc5[nH]ccc5c4)c3)CC2)=C(c2ccc(Cl)cc2)C1 [Venetoclax] + CCN(CCO)CCCOc1ccc2c(Nc3cc(CC(=O)Nc4cccc(F)c4)[nH]n3)ncnc2c1 [AZD2811] (first compound max 1 µM, 7x7, partner max 1 µM) . Reported Bliss excess? -0.0404

Quick one: Bliss excess of O=C(c1cc(Cc2n[nH]c(=O)c3ccccc23)ccc1F)N1CCN(C(=O)C2CC2)CC1 [Olaparib] + COc1nnc2ccc(N3CCC(c4ccc(OCCN5CCN(C)C(=O)[C@H]5C)cc4)CC3)nn12 [AZD5153] (first compound max 10 µM, 7x7, partner max 1 µM) ? -0.0472

Item under review: Cn1cnc2c(F)c(Nc3ccc(Br)cc3Cl)c(C(=O)NOCCO)cc21 [Selumetinib] + C[C@@H]1COCCN1C2=NC(=NC(=C2)C3(CC3)[S@](=N)(=O)C)C4=C5C=CNC5=NC=C4 [AZD6738] (first compound max 10 µM, 7x7, partner max 10 µM) . Reported Bliss excess? -0.0352

These entries and their values trace back to the supplement of paper PMC11061612.
